The values you see were collected from the supplement of paper PMC6755084.

Recorded fraction ligated by entry
B1: F1*; the commonest letter at each place (parent)
chain: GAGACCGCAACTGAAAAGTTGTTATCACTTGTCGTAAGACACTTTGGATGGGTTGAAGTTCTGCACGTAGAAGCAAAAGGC

# Variants of: B1
# experiment.summary: fraction ligated after 30 min (ligated reads / total reads); higher = more ligase activity
# reported.conditions: with F1*sub RNA substrate (template-directed ligation), 42 °C
Reply briefly: the number, and no unit.

Inquiry: Which fraction ligated is listed for T32A A37G ?
Reply text: 0.838

Inquiry: Proceed to A36T T44G
Reply text: 0.847

Inquiry: Proceed to C42T T49C
Reply text: 0.774

Inquiry: Proceed to A27C A56C
Reply text: 0.75

Inquiry: Proceed to C28A T30C
Reply text: 0.804

Inquiry: Proceed to T23A A56G
Reply text: 0.686

Inquiry: Proceed to A27G A56G
Reply text: 0.755

Inquiry: Proceed to T25G G50T
Reply text: 0.436

Inquiry: Proceed to C33G G50T
Reply text: 0.545

Inquiry: Proceed to A41G
Reply text: 0.802

Others:
Inquiry: Which fraction ligated is listed for C42T T45A ?
Reply text: 0.799

Inquiry: Proceed to T35G A57C
Reply text: 0.805

Inquiry: Proceed to C28G C40G
Reply text: 0.812

Inquiry: Proceed to G47T T49A
Reply text: 0.0948

Inquiry: Proceed to T43G A48T
Reply text: 0.668

Inquiry: Proceed to T30C T44G
Reply text: 0.812

Inquiry: Proceed to C40G A48C
Reply text: 0.768

Inquiry: Proceed to T23G G50A
Reply text: 0.633

Inquiry: Proceed to T23A T29A
Reply text: 0.826

Inquiry: Proceed to C28T T35G
Reply text: 0.785

Inquiry: Proceed to C33A A36G
Reply text: 0.824

Inquiry: Proceed to C26T T32G
Reply text: 0.801

Inquiry: Proceed to T30A A37C
Reply text: 0.831

Inquiry: Proceed to A36C A57C
Reply text: 0.813

Inquiry: Proceed to T23A A48G
Reply text: 0.596

Inquiry: Proceed to A39T T43G
Reply text: 0.772

Inquiry: Proceed to G47A G50T
Reply text: 0.657

Inquiry: Proceed to T30C A57G
Reply text: 0.818

Inquiry: Proceed to C33T G46C
Reply text: 0.807
